Assay: Particle size distribution and specific surface area (LS 200, Small Volume Module, Fraunhofer optical model)
Format: physicochemical
Conditions: Particle Diameter (Lower) 10.78 μm
Diff. Volume % overview
measured property: Diff. Volume % (%)

>>> value("O=C([O-])CCNC(=O)c1ccc(/N=N/c2ccc(O)c(C(=O)[O-])c2)cc1.[Na+].[Na+] [Sample 3]")
19.8
>>> value("O=C(O)CCNC(=O)c1ccc(/N=N/c2ccc(O)c(C(=O)O)c2)cc1 [Feed Powder Sample C (#53.$02)]")
20.7
>>> value("O=C(O)CCNC(=O)c1ccc(/N=N/c2ccc(O)c(C(=O)O)c2)cc1 [Feed Powder Sample A (#35.$01)]")
21.8
>>> value("O=C([O-])CCNC(=O)c1ccc(/N=N/c2ccc(O)c(C(=O)[O-])c2)cc1.[Na+].[Na+] [Sample 1]")
15.8
>>> value("O=C([O-])CCNC(=O)c1ccc(/N=N/c2ccc(O)c(C(=O)[O-])c2)cc1.[Na+].[Na+] [Sample 2]")
12.6
>>> value("O=C(O)CCNC(=O)c1ccc(/N=N/c2ccc(O)c(C(=O)O)c2)cc1 [Feed Powder Sample B (#41.$02)]")
21.3
>>> value("O=C([O-])CCNC(=O)c1ccc(/N=N/c2ccc(O)c(C(=O)[O-])c2)cc1.[Na+].[Na+] [Sample 4]")
21.2
